# TARGET: SlDXS1 (Solanum lycopersicum, UniProt Q9XH50)
# Sequence (Q9XH50 58-719): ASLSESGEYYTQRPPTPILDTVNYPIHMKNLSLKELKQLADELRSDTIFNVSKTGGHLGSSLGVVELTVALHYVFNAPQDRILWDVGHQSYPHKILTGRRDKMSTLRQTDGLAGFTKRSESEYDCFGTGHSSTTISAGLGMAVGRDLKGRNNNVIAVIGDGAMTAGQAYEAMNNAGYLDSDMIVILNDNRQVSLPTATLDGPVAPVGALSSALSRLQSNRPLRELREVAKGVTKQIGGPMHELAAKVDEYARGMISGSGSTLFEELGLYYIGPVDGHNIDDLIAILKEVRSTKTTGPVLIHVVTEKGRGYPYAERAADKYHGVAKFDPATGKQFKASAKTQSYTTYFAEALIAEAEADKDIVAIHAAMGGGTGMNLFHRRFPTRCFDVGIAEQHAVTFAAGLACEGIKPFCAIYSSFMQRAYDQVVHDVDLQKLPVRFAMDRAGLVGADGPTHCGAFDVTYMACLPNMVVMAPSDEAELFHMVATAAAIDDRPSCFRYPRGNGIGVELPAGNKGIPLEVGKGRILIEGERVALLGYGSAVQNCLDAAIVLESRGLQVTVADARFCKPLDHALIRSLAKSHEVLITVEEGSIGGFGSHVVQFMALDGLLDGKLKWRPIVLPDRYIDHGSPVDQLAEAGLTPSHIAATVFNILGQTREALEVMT
PROPERTY_NAME: Kd
Report field: quantity (unit follows the number).

Entry Cc1ncc(C[n+]2csc(CCO[P@](=O)(O)OP(=O)(O)O)c2C)c(N)n1 [TPP, thiamine diphosphate] — recorded Kd = 4.2 µM
